Entries with reported Ki on Bcl-2-like protein 1 (Homo sapiens, UniProt Q07817)
Sequence (Q07817 whole entry): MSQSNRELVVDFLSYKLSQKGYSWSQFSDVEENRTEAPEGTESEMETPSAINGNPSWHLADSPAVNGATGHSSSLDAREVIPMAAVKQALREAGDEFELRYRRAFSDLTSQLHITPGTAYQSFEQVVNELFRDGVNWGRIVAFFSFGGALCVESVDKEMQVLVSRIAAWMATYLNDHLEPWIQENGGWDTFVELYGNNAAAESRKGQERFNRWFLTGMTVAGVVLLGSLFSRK
One number for each entry, in µM.

In the examples that follow, each entry is paired with its recorded Ki.
• COC(=O)[C@@H](NC(=O)c1ccc(C(=O)N(C(C)C)C(C)C)cc1OC(C)C)C(C)C = 5.85
• COC(=O)[C@@H](NC(=O)c1ccc(C(=O)N(C(C)C)C(C)C)cc1OC(C)C)c1ccccc1 = 10.9
• COC(=O)[C@@H](CC(C)C)NC(=O)c1ccc(C(=O)N(C(C)C)C(C)C)cc1OC = 1.78

# context switch: different compound, same Ki
# get_value(readout='Ki', item= `CC(C)C[C@H](NC(=O)c1ccc(C(=O)N(C(C)C)C(C)C)cc1Oc1ccccc1)C(=O)O` )
1.01
